biological target: PD-1/PD-L1 binding (recombinant human PD-L1-Fc fusion protein and His-PD-1 protein) (Homo sapiens (Human)); assay: In vitro inhibitory activity against PD-1/PD-L1 binding (HTRF); details: read-out: IC50 for inhibiting PD-1/PD-L1 binding in vitro
Sequence (Q9NZQ7 19-239): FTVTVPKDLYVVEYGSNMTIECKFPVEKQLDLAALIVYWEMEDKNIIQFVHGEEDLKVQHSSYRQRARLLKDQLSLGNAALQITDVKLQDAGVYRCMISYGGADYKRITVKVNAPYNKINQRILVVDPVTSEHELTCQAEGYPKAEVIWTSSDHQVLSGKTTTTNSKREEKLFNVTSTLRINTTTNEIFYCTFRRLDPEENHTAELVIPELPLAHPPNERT
measure-name: pIC50
Quick note: pIC50 values are minus log10 of concentrations in mol/L.

What does the data say about its pIC50? Entry: COCC12CCC(CCCN3CCc4c(nc(C(=O)Nc5cccc(-c6cccc(NC(=O)c7nc8c(n7C)CCN(CCC79CCC(C(=O)O)(CC7)C9)C8)c6C)c5Cl)n4C)C3)(CC1)C2 [Compound I-1] 8.83

// repeat for Cn1c(C(=O)Nc2cccc(-c3cccc(NC(=O)c4nc5c(n4C)CCN(CCC46CCC(C(=O)O)(CC4)C6)C5)c3Cl)c2F)nc2c1CCN(CCC13CCC(COC(F)F)(CC1)C3)C2 [Compound I-10] and report 8.95

// repeat for Cn1c(C(=O)Nc2cccc(-c3cccc(NC(=O)c4nc5c(n4C)CCN(CCC46CCC(C(=O)O)(CC4)C6)C5)c3Cl)c2Cl)nc2c1CCN(CCC13CCC(COC(F)F)(CC1)C3)C2 [Compound I-7] and report 9.54

// repeat for COCC12CCC(CCN3CCc4c(nc(C(=O)Nc5cccc(-c6cccc(NC(=O)c7nc8c(n7C)CCN(CCC79CCC(C(=O)O)(CC7)C9)C8)c6Cl)c5C#N)n4C)C3)(CC1)C2 [Compound I-11] and report 8.71

// repeat for COCC12CCC(CCCN3CCc4c(nc(C(=O)Nc5cccc(-c6cccc(NC(=O)c7nc8c(n7C)CCN(CCC79CCC(C(=O)O)(CC7)C9)C8)c6Cl)c5C)n4C)C3)(CC1)C2 [Compound I-2] and report 8.88

// repeat for CCOCC12CCC(CCN3CCc4c(nc(C(=O)Nc5cccc(-c6cccc(NC(=O)c7nc8c(n7C)CCN(CCC79CCC(C(=O)O)(CC7)C9)C8)c6C)c5Cl)n4C)C3)(CC1)C2 [Compound I-3] and report 8.92

// repeat for COCC12CCC(CCN3CCc4c(nc(C(=O)Nc5cccc(-c6cccc(NC(=O)c7nc8c(n7C)CCN(CCC79CCC(C(=O)O)(CC7)C9)C8)c6Cl)c5F)n4C)C3)(CC1)C2 [Compound I-9] and report 9.06
